System: Plasmodium falciparum
Test description: GSK_TCMDC: Inhibition of Plasmodium falciparum 3D7 in whole red blood cells, using parasite LDH activity as an index of growth. Test compounds present at 2uM
Assay type: functional
Measurement label: Inhibition (%)
Express the result in % but write the number alone.

| Compound | Output unit | Inhibition |
| --- | --- | --- |
| CCc1ccc(NC(=O)c2cccc(CN3CCCN(CC4CCCCC4)CC3)c2)cc1.O=C(O)C(F)(F)F | % | 85 |
| O=C(Nc1ccc(F)cc1)NC1CCN(c2ccnc3ccccc23)C1.O=C(O)C(F)(F)F (stereo unspecified) | % | 92 |
| CN1CC[C@@H](Oc2cc(C(=O)NCc3ccc(Cl)c(Cl)c3)ccc2C(F)(F)F)C1.Cl | % | 88 |

Quote Inhibition reported for `CCCn1c(Sc2ccc(C#N)c([N+](=O)[O-])c2)nnc1-c1ccc(N(C)C)cc1` please.
97

Quote Inhibition reported for `CC(C)[C@H](NC(=O)c1ccc(O)c(-c2ccc(Cl)c(Cl)c2)c1)C(=O)NCCN1CCCCC1` please.
99

Quote Inhibition reported for O=C(Nc1ccc(Cl)c(C(F)(F)F)c1)N[C@H]1CCN(CCCCCNC(=O)C2CC2c2ccc(Cl)c(Cl)c2)C1 (stereo partly specified) please.
94

Quote Inhibition reported for `Cc1cc(OCCCN2CCCCC2)ccc1NC(=O)COc1ccc(Cl)cc1C(=O)c1cc(Cl)cc(C#N)c1` please.
93

Quote Inhibition reported for `O=C(O)C(F)(F)F.Oc1ccc(CCCNc2nc(NCc3cccc4ccccc34)nc(N3CCCNCC3)n2)cc1` please.
96

Quote Inhibition reported for `Cc1cc(N2CCN(C3CCCCC3)CC2)nc2cccc(O)c12` please.
100

Quote Inhibition reported for COc1cccc(C2CCCN(CCCCNC(=O)c3ccc(NC(=O)c4ccc(Cl)cc4)cc3)C2)c1 (stereo unspecified) please.
95

Quote Inhibition reported for `Cc1ccc(N2C(N)=NC(N)=NC2(C)C)cc1.Cl` please.
96

Quote Inhibition reported for `Cc1ccc(C(=O)NC2CC2)cc1-c1ccc2c(cnn2S(=O)(=O)c2ccc(F)cc2)c1` please.
93

Quote Inhibition reported for `Cc1cc2ncn(-c3nccc(NCc4ccc(F)c(C)c4)n3)c2cc1C.O=C(O)C(F)(F)F` please.
90

Quote Inhibition reported for `CN(C)CCOc1cc(NC(=O)c2ccc(-c3ccc(Cl)cc3Cl)cc2)ccc1-c1ccccc1` please.
98

====

System: Plasmodium falciparum
Test description: GSK_TCMDC: Inhibition of Plasmodium falciparum Dd2 in whole red blood cells, using parasite LDH activity as an index of growth. Test compounds present at 2uM
Assay type: functional
Mark each entry Yes if its Inhibition sits below 80%, and No for all others.

Use these answered entries as a reference point.
| Compound | Label value |
| --- | --- |
| Cc1c(-c2ccccc2)ccc2[nH]cc(CC#N)c12 | No |
| Fc1cc(Cl)ccc1Nc1ccnc2cc(-c3ccc(CN4CCSCC4)o3)ccc12 | No |
| Oc1cc2c(cc1CN1CCN(Cc3cccs3)CC1)CCC2 | No |
| Nc1nc(N)c2c(Sc3ccc(F)cc3)cccc2n1 | Yes |

Below 80% on Inhibition? Entry `Nc1cc(-c2ccc(Br)cc2O)nc2ccccc12`
Yes

Below 80% on Inhibition? Entry `Cc1cccc2nc(O)c([N+](=O)[O-])c(O)c12`
Yes

Below 80% on Inhibition? Entry `COc1cc(C)nc2ccc(NC(=O)Nc3ccc4nc(C)cc(OC)c4c3)cc12`
No

Below 80% on Inhibition? Entry `Fc1ccccc1C=NN=c1cc[nH]c2ccc(C(F)(F)F)cc12`
Yes

Below 80% on Inhibition? Entry O=C(O)c1ccc(NC(=O)C2CC(=O)N(Cc3ccc(Cl)cc3)C(=Nc3ccc(Cl)cc3)S2)cc1 (stereo not given)
No
